Below, each of the binders is paired with its reported koff value.
Molecular target: T1, SARS-CoV-2 spike trimer S (Wuhan, SmT1) (SARS-CoV-2 Wuhan)
T1 construct: extracellular domain
Test: SPR, antigen on chip
readout_kind: koff (s⁻¹)

binder	readout_kind	assay_value
NRCoV2-20 VHH (VHH) VHH: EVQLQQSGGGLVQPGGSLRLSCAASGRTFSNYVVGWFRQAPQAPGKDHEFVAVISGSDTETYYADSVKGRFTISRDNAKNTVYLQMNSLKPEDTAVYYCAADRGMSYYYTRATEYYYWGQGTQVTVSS	koff	0.0159
NRCoV2-SR16 VHH (VHH) VHH: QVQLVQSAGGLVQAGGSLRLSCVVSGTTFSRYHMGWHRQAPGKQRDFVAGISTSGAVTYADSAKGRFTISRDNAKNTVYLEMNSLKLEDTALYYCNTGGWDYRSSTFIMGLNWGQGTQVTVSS	koff	0.0012
NRCoV2-S2G4 VHH (VHH) VHH: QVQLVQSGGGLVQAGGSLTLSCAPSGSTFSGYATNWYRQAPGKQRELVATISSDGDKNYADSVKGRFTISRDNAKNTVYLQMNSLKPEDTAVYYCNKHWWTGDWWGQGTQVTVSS	koff	0.000207
NRCoV2-07 VHH (VHH) VHH: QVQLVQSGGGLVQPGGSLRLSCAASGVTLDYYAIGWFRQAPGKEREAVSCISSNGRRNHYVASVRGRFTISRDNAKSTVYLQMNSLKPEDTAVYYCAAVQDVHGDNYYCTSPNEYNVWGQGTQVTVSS	koff	0.000403
